- tested system: Neuronal acetylcholine receptor; alpha4/beta2 (Rattus norvegicus, UniProt P09483+P12390)
- Sequence (P09483 whole entry): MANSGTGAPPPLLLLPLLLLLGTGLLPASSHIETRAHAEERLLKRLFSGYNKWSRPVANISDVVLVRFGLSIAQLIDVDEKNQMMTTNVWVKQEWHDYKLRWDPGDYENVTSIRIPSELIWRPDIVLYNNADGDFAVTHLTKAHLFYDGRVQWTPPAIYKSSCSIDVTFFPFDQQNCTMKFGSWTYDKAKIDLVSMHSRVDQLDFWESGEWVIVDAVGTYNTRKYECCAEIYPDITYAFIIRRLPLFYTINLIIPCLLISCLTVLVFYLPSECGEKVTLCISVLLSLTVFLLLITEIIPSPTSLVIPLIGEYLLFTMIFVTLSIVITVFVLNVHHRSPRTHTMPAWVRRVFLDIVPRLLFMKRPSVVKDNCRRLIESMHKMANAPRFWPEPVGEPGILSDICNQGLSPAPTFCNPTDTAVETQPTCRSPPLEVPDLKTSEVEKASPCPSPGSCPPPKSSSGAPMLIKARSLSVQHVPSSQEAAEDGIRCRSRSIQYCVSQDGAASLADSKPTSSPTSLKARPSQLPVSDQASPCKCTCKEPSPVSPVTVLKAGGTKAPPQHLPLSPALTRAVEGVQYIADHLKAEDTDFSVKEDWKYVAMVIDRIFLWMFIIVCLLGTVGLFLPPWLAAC
- Sequence (P12390 whole entry): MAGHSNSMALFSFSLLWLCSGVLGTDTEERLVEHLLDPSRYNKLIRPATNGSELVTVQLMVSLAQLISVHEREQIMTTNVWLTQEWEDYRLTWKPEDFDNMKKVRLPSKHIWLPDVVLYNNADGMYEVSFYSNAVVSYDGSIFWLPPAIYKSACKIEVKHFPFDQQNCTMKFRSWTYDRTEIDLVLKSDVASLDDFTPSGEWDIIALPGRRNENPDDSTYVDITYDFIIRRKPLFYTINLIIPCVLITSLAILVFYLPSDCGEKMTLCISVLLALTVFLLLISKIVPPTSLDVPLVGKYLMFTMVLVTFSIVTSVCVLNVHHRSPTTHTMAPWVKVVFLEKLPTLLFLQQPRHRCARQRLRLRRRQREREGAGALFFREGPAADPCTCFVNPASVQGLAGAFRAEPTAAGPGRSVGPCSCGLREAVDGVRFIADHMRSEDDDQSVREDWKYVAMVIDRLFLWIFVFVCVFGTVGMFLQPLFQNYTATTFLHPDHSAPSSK
- measurement description: Inhibition of [3H]-nicotine binding to nicotinic acetylcholine receptor alpha4-beta2 in rat cortex
Record form. Attribute: pKi. Fill in for each entry.
Scale: pKi equals -log10([C]), with [C] in mol/L.

### Prompt pKi of c1ccc2c(c1)CC1CNCC2C1 (centres undefined) on Neuronal acetylcholine receptor; alpha4/beta2 (Rattus norvegicus, UniProt P09483+P12390)?
### Response 7.19

### Prompt pKi of Oc1ccc2c(c1)C1CNCC(C2)C1 (centres undefined) on Neuronal acetylcholine receptor; alpha4/beta2 (Rattus norvegicus, UniProt P09483+P12390)?
### Response 7.12

### Prompt pKi of COc1ccc2c(c1)CC1CNCC2C1 (centres undefined) on Neuronal acetylcholine receptor; alpha4/beta2 (Rattus norvegicus, UniProt P09483+P12390)?
### Response 8.49

### Prompt pKi of COc1ccc2c(c1)C1CNCC(C2)C1 (centres undefined) on Neuronal acetylcholine receptor; alpha4/beta2 (Rattus norvegicus, UniProt P09483+P12390)?
### Response 7.05

----------
- measurement description: Inhibition of [3H]alpha-bungarotoxin binding to nicotinic acetylcholine receptor alpha-1-beta-1-delta-gamma of electroplax
- Design: species or system pisces
Record form. Attribute: Ki. Fill in for each entry.
Lab book: enter the figure in nM, no units written.

### Prompt Value lookup for Ki; key = O=c1cccc2n1C[C@@H]1CNC[C@H]2C1 [CYTISINICLINE]
### Response 250

### Prompt Value lookup for Ki; key = Fc1ccc2c(c1F)CC1CNCC2C1 (stereo not drawn)
### Response 3000

### Prompt Value lookup for Ki; key = c1cc2c(c3c1CC1CNCC3C1)OCO2 (stereo not drawn)
### Response 4500

----------
- tested system: Neuronal acetylcholine receptor; alpha4/beta2 (Homo sapiens, UniProt P17787+P43681)
- Sequence (P17787 whole entry): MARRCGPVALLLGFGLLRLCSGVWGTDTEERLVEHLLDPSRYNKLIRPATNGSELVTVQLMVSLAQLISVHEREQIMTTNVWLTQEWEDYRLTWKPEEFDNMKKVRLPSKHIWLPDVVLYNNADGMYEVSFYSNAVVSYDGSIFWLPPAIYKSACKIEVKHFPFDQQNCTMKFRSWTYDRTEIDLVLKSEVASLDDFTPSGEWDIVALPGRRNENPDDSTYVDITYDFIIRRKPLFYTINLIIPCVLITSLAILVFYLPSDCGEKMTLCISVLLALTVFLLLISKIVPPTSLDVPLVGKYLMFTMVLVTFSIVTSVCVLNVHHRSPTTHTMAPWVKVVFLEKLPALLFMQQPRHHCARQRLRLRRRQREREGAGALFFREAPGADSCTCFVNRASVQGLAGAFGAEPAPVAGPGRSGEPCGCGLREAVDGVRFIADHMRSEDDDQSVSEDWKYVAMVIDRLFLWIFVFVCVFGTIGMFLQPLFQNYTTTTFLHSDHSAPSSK
- Sequence (P43681 whole entry): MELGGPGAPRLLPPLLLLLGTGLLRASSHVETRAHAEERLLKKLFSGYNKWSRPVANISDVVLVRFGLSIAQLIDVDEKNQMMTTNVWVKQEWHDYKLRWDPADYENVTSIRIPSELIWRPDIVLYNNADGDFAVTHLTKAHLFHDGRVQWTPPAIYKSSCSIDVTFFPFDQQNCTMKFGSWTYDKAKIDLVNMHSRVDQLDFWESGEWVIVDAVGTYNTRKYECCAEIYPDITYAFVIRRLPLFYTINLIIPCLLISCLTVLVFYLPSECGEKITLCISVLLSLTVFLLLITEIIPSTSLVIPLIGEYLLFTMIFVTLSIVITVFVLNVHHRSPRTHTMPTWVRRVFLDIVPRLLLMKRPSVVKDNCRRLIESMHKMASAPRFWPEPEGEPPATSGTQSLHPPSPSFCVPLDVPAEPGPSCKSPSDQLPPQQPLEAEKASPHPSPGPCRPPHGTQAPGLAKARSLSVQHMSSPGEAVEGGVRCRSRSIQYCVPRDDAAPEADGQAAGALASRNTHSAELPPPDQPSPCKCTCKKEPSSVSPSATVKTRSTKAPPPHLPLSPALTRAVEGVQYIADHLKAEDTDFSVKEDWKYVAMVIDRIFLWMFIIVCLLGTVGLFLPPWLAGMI
- measurement description: Binding affinity against nicotinic acetylcholine receptor alpha4-beta2 in human HEK293 cells using [3H]- nicotine as radioligand
attribute measured: Ki (nM)
Lab book: enter the figure in nM, no units written.

### Prompt Value lookup for Ki; key = O=[N+]([O-])c1ccc2c(c1)C1CNCC(C2)C1 (stereo not drawn)
### Response 6.5

### Prompt Value lookup for Ki; key = Oc1cccc2c1CC1CNCC2C1 (stereo not drawn)
### Response 2.9

### Prompt Value lookup for Ki; key = Fc1cccc2c1CC1CNCC2C1 (stereo not drawn)
### Response 6.5

### Prompt Value lookup for Ki; key = Fc1ccc2c(c1)CC1CNCC2C1 (stereo not drawn)
### Response 2

### Prompt Value lookup for Ki; key = c1ccc2c(c1)CC1CNCC2C1 (stereo not drawn)
### Response 34

### Prompt Value lookup for Ki; key = "O=c1cccc2n1C[C@@H]1CNC[C@H]2C1"
### Response 0.23

### Prompt Value lookup for Ki; key = Fc1ccc2c(c1F)CC1CNCC2C1 (stereo not drawn)
### Response 0.44

### Prompt Value lookup for Ki; key = FC(F)(F)c1ccc(-c2ccc3c(c2)CC2CNCC3C2)cc1 (stereo not drawn)
### Response 200

### Prompt Value lookup for Ki; key = FC(F)Oc1ccc2c(c1)CC1CNCC2C1 (stereo not drawn)
### Response 7

### Prompt Value lookup for Ki; key = COC(=O)c1ccc2c(c1)CC1CNCC2C1 (stereo not drawn)
### Response 34

----------
- tested system: Neuronal acetylcholine receptor subunit alpha-7 (Homo sapiens, UniProt P36544)
- Sequence (P36544 whole entry): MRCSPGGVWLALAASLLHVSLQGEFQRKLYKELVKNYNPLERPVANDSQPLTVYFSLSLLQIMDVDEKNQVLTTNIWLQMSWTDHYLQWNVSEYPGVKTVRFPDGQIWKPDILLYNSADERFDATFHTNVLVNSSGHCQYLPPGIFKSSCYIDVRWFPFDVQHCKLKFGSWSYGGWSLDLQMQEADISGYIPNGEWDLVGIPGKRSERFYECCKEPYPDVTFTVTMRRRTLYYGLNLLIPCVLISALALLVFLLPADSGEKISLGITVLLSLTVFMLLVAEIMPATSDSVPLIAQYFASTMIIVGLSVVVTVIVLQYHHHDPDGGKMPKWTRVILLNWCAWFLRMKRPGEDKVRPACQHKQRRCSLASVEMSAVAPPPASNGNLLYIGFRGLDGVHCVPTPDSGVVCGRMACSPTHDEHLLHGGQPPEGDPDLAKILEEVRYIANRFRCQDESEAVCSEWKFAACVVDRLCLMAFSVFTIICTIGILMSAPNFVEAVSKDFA
- measurement description: Inhibition of [3H]alpha-bungarotoxin binding to nicotinic acetylcholine receptor alpha7 of IMR32 cells
pKi: −log10 of the molar value.
Label no if pKi falls below 6; label yes in every other case.

### Prompt Could you tell me if the measured pKi of O=c1cccc2n1C[C@@H]1CNC[C@H]2C1 [CYTISINICLINE] reaches 6 or more?
### Response no

### Prompt Could you tell me if the measured pKi of COc1ccc2c(c1)CC1CNCC2C1 (configuration not stated) reaches 6 or more?
### Response no

### Prompt Could you tell me if the measured pKi of Fc1ccc2c(c1)CC1CNCC2C1 (configuration not stated) reaches 6 or more?
### Response yes

### Prompt Could you tell me if the measured pKi of FC(F)Oc1ccc2c(c1)CC1CNCC2C1 (configuration not stated) reaches 6 or more?
### Response no

### Prompt Could you tell me if the measured pKi of c1cc2c(c3c1CC1CNCC3C1)OCO2 (configuration not stated) reaches 6 or more?
### Response no

### Prompt Could you tell me if the measured pKi of Fc1ccc2c(c1F)CC1CNCC2C1 (configuration not stated) reaches 6 or more?
### Response yes

----------
- tested system: Neuronal acetylcholine receptor; alpha4/beta2 (Homo sapiens, UniProt P17787+P43681)
- measurement description: Binding affinity against nicotinic acetylcholine receptor alpha4-beta2 in human HEK293 cells using [3H]- nicotine as radioligand
Record form. Attribute: Ki. Fill in for each entry.

### Prompt Ki of COc1cccc2c1CC1CNCC2C1 (stereo not drawn) on Neuronal acetylcholine receptor; alpha4/beta2 (Homo sapiens, UniProt P17787+P43681)?
### Response > 500 nM

### Prompt Ki of c1cncc(-c2ccc3c(c2)CC2CNCC3C2)c1 (stereo not drawn) on Neuronal acetylcholine receptor; alpha4/beta2 (Homo sapiens, UniProt P17787+P43681)?
### Response > 500 nM

### Prompt Ki of O=c1oc2ccc3c(c2o1)CC1CNCC3C1 (stereo not drawn) on Neuronal acetylcholine receptor; alpha4/beta2 (Homo sapiens, UniProt P17787+P43681)?
### Response > 500 nM

----------
- tested system: Neuronal acetylcholine receptor; alpha4/beta2 (Homo sapiens, UniProt P17787+P43681)
- measurement description: Binding affinity against nicotinic acetylcholine receptor alpha4-beta2 in human HEK293 cells using [3H]- nicotine as radioligand
Record form. Attribute: Ki. Fill in for each entry.

### Prompt Value lookup for Ki; key = NC(=O)COc1ccc2c(c1)CC1CNCC2C1 (stereo not drawn)
### Response > 500 nM

### Prompt Value lookup for Ki; key = c1ccc(-c2ccc3c(c2)CC2CNCC3C2)cc1 (stereo not drawn)
### Response > 500 nM

### Prompt Value lookup for Ki; key = Nc1cccc(-c2ccc3c(c2)CC2CNCC3C2)c1 (stereo not drawn)
### Response > 500 nM
